Tested on: SK-OV-3 ovarian
Test: NCI-60 one-dose screen, 48 h (100 = growth as untreated, 0 = no growth, -100 = all killed)
Conditions: 10 µM unless noted
This is part of a sample that, as a whole, favours compounds with a hit. Of some 83,000 tested, about 20% had one in any assay.
For each of the compounds below, state its growth.
Numbers only, in %.

Worked examples follow.
{"columns": ["compound", "u", "growth"],
 "data": [
  ["N#C/C(=C\\c1ccc(Cl)cc1)n1nnc2cc(F)c(F)cc21", "%", 88.7],
  ["COC(=O)C1=C(C(=O)ON)C2C=CC1(C(Cc1ccccc1)Nc1ccccc1)O2 (stereo not given)", "%", 104],
  ["Cc1ccc(S(=O)(=O)Nn2c3c(cc(-c4nc5ccccc5s4)c2=O)CCCCCC3)cc1", "%", 104],
  ["CN1C(=O)NC(c2ccc3c(c2)OCO3)C=C1c1ccccc1 (stereo not given)", "%", 94.1],
  ["O=C1c2c(c3c4cccc(F)c4[nH]c3c3ccc4ccccc4c23)C(=O)N1O", "%", 75.5],
  ["COc1ccc(CCn2cncc2-c2c[nH]c3ccccc23)cc1", "%", 87.7],
  ["O=C(CSc1nc2sc3c(c2c(=O)n1-c1ccc(Cl)cc1)CCCC3)Nc1nc(-c2cccc(Br)c2)cs1", "%", 94.2],
  ["COc1ccc(C(C)=O)c(OC)c1", "%", 105]
]}

Please give growth for each item listed below.
1. COc1ccc(C(=O)c2cc(C)c(OC)c(C)c2)c(OC)c1OC(=O)C(Cl)Cl
2. COc1cc2oc(-c3cccc(C(=O)Nc4ccc(Br)cc4)c3)cc(=O)c2c(OC)c1OC
3. O=C(NNc1nc2c(F)cccc2n2cccc12)c1cnccn1

1: -2.06; 2: 69.4; 3: 28.4

Report growth for every entry below.
1. CC(=O)[C@@H]1CC[C@]2(C(N)=O)CC[C@]3(C)[C@H](CC[C@@H]4[C@@]5(C)CCCNC(C)(C)[C@@H]5CC[C@]43C)[C@@H]12
2. CCOC(=O)CCN(CC(C)C)C(=S)Nc1ccccc1
3. COc1ccc(CNCCN2C(=O)c3ccc4c5c(ccc(c35)C2=O)C(=O)N(CCNCc2ccc(OC)c(OC)c2OC)C4=O)c(OC)c1OC
4. O=S(=O)(NCCNc1nccc(-c2c(-c3cccc(O)c3)nc3occn23)n1)c1ccc(C(F)(F)F)cc1
5. Cc1ncc(C(=O)Nc2ccc(CN3CCN(C)CC3)c(C(F)(F)F)c2)cc1C#Cc1cnc(N)cc1C#N
6. CCCCCN1C=C/C(=C\C(=O)N(C)c2ccccc2Br)c2ccccc21
7. COc1cccc(C(=O)NNc2nc(Cl)nc(N3CCN(C(c4ccccc4)c4ccccc4)CC3)n2)c1

1: 108; 2: 130; 3: 58; 4: 95.8; 5: 20.6; 6: 94; 7: 96

Hi team, please reply with growth for each item in this list.
1. CCN1Cc2nc3sc(C)c(C)c3c(=O)n2C=C1C
2. O=C(N/N=C/c1ccc(Oc2ccccc2)cc1)c1cnn2c1NC(c1ccccc1)C2 (stereo not given)

1: 115; 2: 48.5
